- TESTED_SYSTEM: T1, human TL1A extracellular domain with N-terminal HIS and FLAG tag (human) (UniProt O95150)
- T1 sequence: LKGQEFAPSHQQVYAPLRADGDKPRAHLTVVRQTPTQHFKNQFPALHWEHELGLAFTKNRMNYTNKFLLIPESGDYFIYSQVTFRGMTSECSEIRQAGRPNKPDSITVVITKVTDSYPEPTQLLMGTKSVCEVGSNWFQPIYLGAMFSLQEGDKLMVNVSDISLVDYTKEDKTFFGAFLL
- ASSAY_NOTES: cell-based or functional assay
Recorded Fold improvement over 320-179, TL1A induced caspase potency assay in TF-1 cells values for a group of binders are listed next.
Please give a number only; it is taken to be in fold.

In the examples that follow, each entry is paired with its recorded Fold improvement over 320-179, TL1A induced caspase potency assay in TF-1 cells.
320-328 (antibody, human IgG1, name in Kabat numbering, V domains shown, human IgG1, lambda) VH: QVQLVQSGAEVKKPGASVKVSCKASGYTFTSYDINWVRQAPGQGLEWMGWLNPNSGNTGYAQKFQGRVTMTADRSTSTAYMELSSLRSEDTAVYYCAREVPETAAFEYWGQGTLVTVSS VL: QSVLTQPPSVSGAPGQRVTISCTSSSSDIGAGLGVHWYQQLPGTAPKLLIEGYYNRPSGVPDRFSGSKSGTSASLTITGLLPEDEGDYYCQSHDGTLSALFGGGTKLTVLG    1
320-226 (antibody, human IgG1, name in Kabat numbering, V domains shown, human IgG1, lambda) VH: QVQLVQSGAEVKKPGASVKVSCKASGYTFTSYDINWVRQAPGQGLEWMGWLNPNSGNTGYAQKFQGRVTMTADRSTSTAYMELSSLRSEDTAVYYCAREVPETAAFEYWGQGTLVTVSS VL: QSVLTQPPSVSGAPGQRVTISCTSSSQDIGAGLGVHWYQQLPGTAPKLLIEGYYNRPSGVPDRFSGSKSGTSASLTITGLLPEDEGDYYCQSYDGTLSALFGGGTKLTVLG    1
320-280 (antibody, human IgG1, name in Kabat numbering, V domains shown, human IgG1, lambda) VH: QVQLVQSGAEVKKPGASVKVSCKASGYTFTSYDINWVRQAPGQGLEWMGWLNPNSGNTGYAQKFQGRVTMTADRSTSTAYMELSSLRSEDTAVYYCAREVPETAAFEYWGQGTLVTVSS VL: QSVLTQPPSVSGAPGQRVTISCTSSSSDIGAGHGVHWYQQLPGTAPKLLIEGYYNRPSGVPDRFSGSKSGTSASLTITGLLPEDEGDYYCQSYDGTLSALFGGGTKLTVLG    3

# return recorded Fold improvement over 320-179, TL1A induced caspase potency assay in TF-1 cells for entry 320-464 (antibody, human IgG1, name in Kabat numbering, V domains shown, human IgG1, lambda) VH: QVQLVQSGAEVKKPGASVKVSCKASGYTFTSYDISWVRQAPGQGLEWMGWLNPNSGNTGYAQKFQGRVTMTADRSTSTAYMELSSLRSEDTAVYYCAREVPETAAFEYWGQGTLVTVSS VL: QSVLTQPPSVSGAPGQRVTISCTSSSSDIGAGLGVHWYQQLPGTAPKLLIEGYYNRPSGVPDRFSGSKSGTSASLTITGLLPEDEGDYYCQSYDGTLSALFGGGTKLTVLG
2

# return recorded Fold improvement over 320-179, TL1A induced caspase potency assay in TF-1 cells for entry 320-211 (antibody, human IgG1, name in Kabat numbering, V domains shown, human IgG1, lambda) VH: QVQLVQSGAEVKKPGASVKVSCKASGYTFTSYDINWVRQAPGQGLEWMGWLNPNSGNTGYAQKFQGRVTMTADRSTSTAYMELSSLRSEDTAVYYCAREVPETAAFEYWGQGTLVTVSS VL: QSVLTQPPSVSGAPGQRVTISCTSDSSDIGAGLGVHWYQQLPGTAPKLLIEGYYNRPSGVPDRFSGSKSGTSASLTITGLLPEDEGDYYCQSYDGTLSALFGGGTKLTVLG
3
